Assay: Passive membrane permeation assay (PAMPA)
Format: in vitro ADME
Settings: pre-coated PAMPA plate, PBS pH 7.4, 200 µM, 25 °C, mean ± standard deviation, read-out: Pe
PROPERTY_MEASURED: Papp at 5 h, 200 µM (×10⁻⁶ cm/s)

compound="CCCCCC(=O)Oc1cccc2[nH]cc(CCN(C)CC)c12 [Compound 8c, reference compound]" meas_value=11.8
compound=CCN(C)CCc1c[nH]c2cccc(OC(=O)CC(C)(C)C)c12 meas_value=11.2
compound="Cn1c(=O)c2c(ncn2C)n(C)c1=O [Caffeine, reference compound]" meas_value=12.8
compound=CCN(C)CCc1c[nH]c2cccc(OC(=O)c3ccccc3)c12 meas_value=9.4
compound=CCN(C)CCc1c[nH]c2cccc(OC(=O)C(C)C)c12 meas_value=9.5

----------
Assay: Passive membrane permeation assay (PAMPA)
Type: in vitro ADME
Settings: pre-coated PAMPA plate, PBS pH 7.4, 200 µM, 25 °C, mean ± standard deviation, read-out: Pe
Structures can show the parent of a compound that is named as a salt.
Please assign n whenever Papp at 5 h, 200 µM is at or above 100 nm/s, and y whenever it is below.

compound="CCCC(=O)Oc1cccc2[nH]cc(CCN(C)CC)c12 [Compound 8b]" class_name=y
compound="CCN(C)CCc1c[nH]c2cccc(OC(=O)CC(C)C)c12 [Compound 8g]" class_name=n
compound="CCN(C)CCc1c[nH]c2cccc(OC(=O)C(C)(C)C)c12 [Compound 8f]" class_name=n
compound="CCN(C)CCc1c[nH]c2cccc(O)c12 [4-OH-MET fumarate 17, reference compound]" class_name=n
compound="O=C1NC(=O)C(c2ccccc2)(c2ccccc2)N1 [Phenytoin, reference compound]" class_name=y
compound="CCN(C)CCc1c[nH]c2cccc(OC(C)=O)c12 [Compound 8a, reference compound]" class_name=y

----------
System: HuH-7 cells
Assay: Cell viability in HuH-7 cells (CellTiter-Blue)
Type: cell-based, human
Details: 50 µM, 2 h incubation; mean of triplicates ± standard deviation
PROPERTY_MEASURED: Cell Viability in HuH7 at 50 µM, 2 h Incubation (%)

compound=CCN(C)CCc1c[nH]c2cccc(OC(=O)c3ccccc3)c12 endpoint_unit=% meas_value=95.0
compound="CC(=O)Oc1ccccc1C(=O)O [Acetylsalicylic acid, reference compound]" endpoint_unit=% meas_value=92.9
compound=CCN(C)CCc1c[nH]c2cccc(OC(=O)C3CC3)c12.CCN(C)CCc1c[nH]c2cccc(OC(=O)C3CC3)c12.O=C(O)/C=C/C(=O)O endpoint_unit=% meas_value=101.2
compound=CCCC(=O)Oc1cccc2[nH]cc(CCN(C)CC)c12 endpoint_unit=% meas_value=88.1

----------
Experiment: Prodrug stability in human whole saliva
Assay type: in vitro ADME
Details: 37 °C, mean of fresh samples of three individuals, classified into three groups
PROPERTY_MEASURED: half-life at 50 µM

compound="CCN(C)CCc1c[nH]c2cccc(OC(C)=O)c12 [Compound 8a, reference compound]" property_measured="half-life at 50 µM" meas_value="15 to 60 min"
compound="CCCCCC(=O)Oc1cccc2[nH]cc(CCN(C)CC)c12 [Compound 8c, reference compound]" property_measured="half-life at 50 µM" meas_value="< 15 min"
compound=CCN(C)CCc1c[nH]c2cccc(OC(=O)C(C)(C)C)c12 property_measured="half-life at 50 µM" meas_value="> 60 min"
compound="CCCC(=O)OCOc1cccc2[nH]cc(CCN(C)CC)c12 [Compound 15d]" property_measured="half-life at 50 µM" meas_value="< 15 min"
compound="CN(C)CCc1c[nH]c2cccc(OCOC(=O)C(C)(C)C)c12 [Compound 15a]" property_measured="half-life at 50 µM" meas_value="15 to 60 min"
compound="CCN(C)CCc1c[nH]c2cccc(OCOC(=O)C(C)(C)C)c12 [Compound 15c]" property_measured="half-life at 50 µM" meas_value="< 15 min"
compound=CCN(C)CCc1c[nH]c2cccc(OC(=O)c3ccccc3)c12 property_measured="half-life at 50 µM" meas_value="15 to 60 min"
compound="CCCC(=O)OCOc1cccc2[nH]cc(CCN(C)C)c12 [Compound 15b]" property_measured="half-life at 50 µM" meas_value="< 15 min"
compound=CCN(C)CCc1c[nH]c2cccc(OC(=O)C(C)C)c12 property_measured="half-life at 50 µM" meas_value="15 to 60 min"
compound=CCCC(=O)Oc1cccc2[nH]cc(CCN(C)CC)c12 property_measured="half-life at 50 µM" meas_value="15 to 60 min"
